Collected literature values of Ki measured for Carbonic anhydrase 2 (Homo sapiens, UniProt P00918).
test_readout: Ki (nM)

[a] NS(=O)(=O)c1ccc(N2C(=O)c3c(Br)c(Br)c(Br)c(Br)c3C2=O)c(F)c1
[b] Oc1c(O)c(Br)c(Cc2c(Br)c(O)c(O)c(Br)c2Br)c(Br)c1Br
[c] OC[C@H]1O[C@H](O[C@]2(CCl)O[C@H](CCl)[C@@H](O)[C@@H]2O)[C@H](O)[C@@H](O)[C@H]1Cl
Q) Task for the reader: rank each entry by its Ki, from the minimum upward. Provide your answer as the labels ordered per the instruction.
A) a, c, b
(a: 96 nM, c: 300 nM, b: 21500 nM)

###

Collected literature values of pKi measured for Carbonic anhydrase 2 (Homo sapiens, UniProt P00918).
pKi: −log10 of the molar value.
test_readout: pKi

[I] CC(C)(C)[Si](C)(C)OCCOc1nc(Cl)nc(Nc2ccc(S(N)(=O)=O)cc2)n1
[II] CCCC(CCC)CN(C(=O)OC(C)(C)C)S(=O)(=O)NCCC(=O)OC
[III] COc1ccc(C(=O)NN)cc1
[IV] CC1=NN(c2ccc(Cl)cc2Cl)C(=O)/C1=N/Nc1ccc(S(N)(=O)=O)cc1
Q) Task for the reader: rank each entry by its pKi, from the minimum upward. Provide your answer as the labels ordered per the instruction.
A) II, III, I, IV
(II: 4.39, III: 5.24, I: 6.45, IV: 7.14)

[I] CCOc1ccc2c(c1)CCN=C2c1ccc(S(N)(=O)=O)cc1
[II] COc1ccccc1-c1noc(-c2csc(S(N)(=O)=O)c2)n1
[III] O=C(NO)[C@H]1C[C@H](NS(=O)(=O)c2ccc(-c3ccccc3)cc2)CN1S(=O)(=O)c1ccc(Cl)c(Cl)c1
[IV] NS(=O)(=O)c1ccc(CCNC(=S)Nc2ccc(C(=O)O)cc2)cc1
Q) Order these by pKi, descending, and give the full ranking. Provide your answer as the labels ordered per the instruction.
A) II, I, IV, III

[1] NS(=O)(=O)c1ccc(-c2noc(-c3ccccn3)n2)cc1
[2] O=C(Nc1ccc2c(c1)C(=O)NS2(=O)=O)c1ccc(F)cc1
[3] N/C(=N\S(=O)(=O)c1ccccc1SCc1ccc(C(F)(F)F)cc1)NNc1nc(Cl)nc(Nc2cccc(S(N)(=O)=O)c2)n1
[4] CC1(C)OB(c2ccc(NC(=S)Nc3ccc(S(=O)(=O)Nc4nnc(S(N)(=O)=O)s4)cc3)cc2)OC1(C)C
[5] COc1cccc(C(=O)N2CCN(C(=O)c3ccc(S(N)(=O)=O)cc3)CC2)c1
Q) Order these by pKi, descending, and give the full ranking. Provide your answer as the labels ordered per the instruction.
A) 1, 4, 5, 3, 2
(1: 9.03, 4: 8.29, 5: 7.44, 3: 6.49, 2: 5.16)

[A] CC(=O)/C(=C\c1ccccc1)C(=O)Nc1ccc(S(N)(=O)=O)cc1
[B] NCCCCC(/N=C(\S)Nc1ccc(S(N)(=O)=O)cc1)C(=O)O (configuration not stated)
[C] CNC(=O)CN1C(=O)c2ccccc2S1(=O)=O
Q) Order these by pKi, descending, and give the full ranking. Provide your answer as the labels ordered per the instruction.
A) A, B, C
(A: 8.36, B: 7.92, C: 7.42)

[I] O=S(=O)(NO)C(F)(F)C(F)(F)C(F)(F)C(F)(F)C(F)(F)C(F)(F)C(F)(F)C(F)(F)F
[II] NS(=O)(=O)Oc1ccc(Oc2ccccc2)cc1
Q) Smaller pKi value? Options are I and II Refer to your chosen entry by its label in the reply.
A) II

[1] COc1cc(OC)c2ccc(=O)oc2c1OC
[2] NS(=O)(=O)c1ccc(CCNC(=O)Nc2ccc(Cl)c(Cl)c2)cc1
Q) Smaller pKi value? Options are 1 and 2 Refer to your chosen entry by its label in the reply.
A) 1
